assayedSystem: CB2 receptor (Mus musculus)
Construct: membranes were prepared from frozen mouse spleen; from tissue; host or cells: mouse spleen
protocolText: CB2 receptor binding, [3H] CP-55,940 displacement, mouse spleen membranes
cond: TABLE 1; racemic samples; mouse spleen membranes; [3H] CP-55,940; read-out: Kl CB2 (converted)
As shown below, each of these molecules has a reported Ki value.
The response must be a number in nM with no trailing unit.

CN1CCCCC1Cn1cc(C(=O)c2ccc(N=C=S)c3ccccc23)c2ccc(N=C=S)cc21 (racemic)    99.6

The molecule identified as CN1CCCCC1Cn1cc(C(=O)c2cccc3ccccc23)c2ccc(N=C=S)cc21 (racemic) registered its Ki at 81.5

The molecule identified as Cc1c(C(=O)c2cccc3ccccc23)c2ccc(N=[N+]=[N-])cc2n1CC1CCCCN1C (racemic) registered its Ki at 34.2

The molecule identified as Cc1c(C(=O)c2cccc3ccccc23)c2ccc([N+](=O)[O-])cc2n1CC1CCCCN1C (stereo not shown) registered its Ki at 0.28

###

As shown below, each of these molecules has a reported Ki value.
assayedSystem: CB2 receptor (Mus musculus, UniProt P47936)
Construct: membranes were prepared from frozen mouse spleen; from tissue; host or cells: mouse spleen
Sequence (P47936 whole entry): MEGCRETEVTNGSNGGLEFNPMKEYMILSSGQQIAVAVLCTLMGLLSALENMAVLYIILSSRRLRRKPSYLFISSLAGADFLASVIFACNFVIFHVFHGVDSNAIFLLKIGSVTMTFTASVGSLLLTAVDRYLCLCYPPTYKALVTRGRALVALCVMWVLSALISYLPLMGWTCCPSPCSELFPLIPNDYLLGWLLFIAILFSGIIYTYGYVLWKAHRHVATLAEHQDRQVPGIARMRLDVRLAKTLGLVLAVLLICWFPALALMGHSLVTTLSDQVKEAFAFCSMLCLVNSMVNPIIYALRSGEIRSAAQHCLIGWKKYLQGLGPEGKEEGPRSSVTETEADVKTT
protocolText: CB2 receptor binding, [3H] CP-55,940 displacement, mouse spleen membranes
cond: TABLE 2; mouse spleen membranes; [3H] CP-55,940; read-out: Kl CB2 (converted)
The response must be a number in nM with no trailing unit.

Reference set, count: 5
O=C(c1cccc2ccccc12)c1cn(CCCCN=C=S)c2ccccc12    1800
[N-]=[N+]=Nc1ccc(C(=O)c2cn(CCCCI)c3ccccc23)c2ccccc12    30
Cc1c(C(=O)c2ccccc2I)c2ccccc2n1CCCCCO    1970
CCCCCCn1c(C)c(C(=O)c2ccccc2I)c2ccccc21    693
CCCCCn1cc(C(=O)c2ccccc2I)c2ccccc21    49.5

The molecule identified as `Cc1c(C(=O)c2ccccc2I)c2ccccc2n1CCCCCI` registered its Ki at 46.2

The molecule identified as `O=C(c1cccc2ccccc12)c1cn(CCCCCO)c2ccccc12` registered its Ki at 111

The molecule identified as `Cc1ccc(S(=O)(=O)OCCCCn2cc(C(=O)c3cccc4ccccc34)c3ccccc32)cc1` registered its Ki at 1290

The molecule identified as `O=C(c1ccccc1I)c1cn(CCCCCI)c2ccccc12` registered its Ki at 315

The molecule identified as `CCCCn1c(C)c(C(=O)c2ccccc2I)c2ccccc21` registered its Ki at 281

###

assayedSystem: CB1 receptor (Rattus norvegicus)
Construct: membranes were prepared from rat forebrain membranes; from tissue; host or cells: rat forebrain
protocolText: CB1 receptor binding, [3H] CP-55,940 displacement, rat forebrain membranes
cond: TABLE 1; racemic samples; rat forebrain membranes; 0.8 nM [3H] CP-55,940; read-out: Kl CB1
quantityKind: pKi
API: returns pKi as number; meaning -log10 of concentration in mol/L.

Reference set, count: 5
CN1CCCCC1Cn1cc(C(=O)C23CC4CC(CC(C4)C2)C3)c2ccccc21 (stereo not shown)    7.00
Cc1c(C(=O)c2cccc3ccccc23)c2ccc([N+](=O)[O-])cc2n1CC1CCCCN1C (stereo not shown)    7.28
Cc1c(C(=O)c2ccccc2I)c2ccc([N+](=O)[O-])cc2n1CC1CCCCN1C (racemic)    7.40
Cc1c(C(=O)c2cccc3ccccc23)c2ccc(N)cc2n1CC1CCCCN1C (racemic)    6.36
CN1CCCCC1Cn1cc(C(=O)c2ccc([N+](=O)[O-])c3ccccc23)c2ccccc21 (stereo not shown)    7.91

The compound identified as CN1CCCCC1Cn1cc(C(=O)c2cccc3ccccc23)c2ccc([N+](=O)[O-])cc21 (racemic) registered its pKi at 7.95

The compound identified as CN1CCCCC1Cn1cc(C(=O)c2cc(N=C=S)ccc2I)c2ccc(N=C=S)cc21 (racemic) registered its pKi at 7.19

###

assayedSystem: CB1 receptor (Rattus norvegicus, UniProt P20272)
Construct: membranes were prepared from rat forebrain membranes; from tissue; host or cells: rat forebrain
Sequence (P20272 whole entry): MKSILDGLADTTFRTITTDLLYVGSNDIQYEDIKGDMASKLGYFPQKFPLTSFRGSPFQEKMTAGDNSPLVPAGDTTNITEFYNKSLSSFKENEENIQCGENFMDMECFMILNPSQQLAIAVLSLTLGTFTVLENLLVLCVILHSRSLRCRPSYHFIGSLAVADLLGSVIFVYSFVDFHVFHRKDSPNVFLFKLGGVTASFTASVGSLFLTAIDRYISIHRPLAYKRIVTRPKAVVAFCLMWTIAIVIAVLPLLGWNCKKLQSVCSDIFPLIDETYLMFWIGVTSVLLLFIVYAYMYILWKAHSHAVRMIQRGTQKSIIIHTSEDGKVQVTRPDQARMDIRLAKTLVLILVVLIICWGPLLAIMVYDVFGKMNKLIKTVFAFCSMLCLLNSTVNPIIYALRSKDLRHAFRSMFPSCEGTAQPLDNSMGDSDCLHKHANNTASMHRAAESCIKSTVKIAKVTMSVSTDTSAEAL
protocolText: CB1 receptor binding, [3H] CP-55,940 displacement, rat forebrain membranes
cond: TABLE 2; rat forebrain membranes; 0.8 nM [3H] CP-55,940; read-out: Kl CB1
quantityKind: Ki (nM)
The response must be a number in nM with no trailing unit.

Reference set, count: 9
O=C(c1cccc2ccccc12)c1cn(CCCCCF)c2cc([N+](=O)[O-])ccc12    1.5
CCCCCn1cc(C(=O)c2cc([N+](=O)[O-])ccc2I)c2ccccc21    98.9
N#CCCCCn1cc(C(=O)c2cccc3ccccc23)c2ccccc21    0.28
O=C(c1cccc2ccccc12)c1cn(CCCCF)c2ccccc12    2.5
O=C(c1cccc2ccccc12)c1cn(CCCN=C=S)c2ccccc12    283
CC(=O)OCCCn1cc(C(=O)c2cccc3ccccc23)c2ccccc21    127
Cc1ccc(S(=O)(=O)OCCCCCn2cc(C(=O)c3ccccc3I)c3ccccc32)cc1    1310
O=C(c1ccccc1I)c1cn(CCCCCF)c2ccccc12    0.08
O=C(c1cccc2ccccc12)c1cn(CCCCCO)c2cc(I)ccc12    3.1

# input for lookup
The compound identified as `O=C(c1cccc2ccccc12)c1cn(CCCCCF)c2cc(I)ccc12` registered its Ki at 1.1

###

As shown below, each of these compounds has a reported log10 Ki value.
assayedSystem: CB2 receptor (Mus musculus)
Construct: membranes were prepared from frozen mouse spleen; from tissue; host or cells: mouse spleen
protocolText: CB2 receptor binding, [3H] CP-55,940 displacement, mouse spleen membranes
cond: TABLE 2; mouse spleen membranes; [3H] CP-55,940; read-out: Kl CB2 (converted)
Description: The materials were tested for CB2 receptor binding affinity and for CB1 receptor affinity (to determine selectivity for the CB2 receptor). […] The treated membranes were subsequently used in the binding assay described below. […] Radioactivity was detected using MicroScint 20 scintillation cocktail added directly to the dried filterplates, and the filterplates were counted using a Packard Instruments Top-Count. Nonspecific binding was assessed using 100 nM CP-55,940. […]
Friendly reminder: values = log10 of Ki, unit µM.

Reference set, count: 4
N#CCCCCn1cc(C(=O)c2cccc3ccccc23)c2ccc([N+](=O)[O-])cc21    -1.62
O=C(c1ccc([N+](=O)[O-])c2ccccc12)c1cn(CCCCI)c2ccccc12    -1.95
O=C(c1cccc2ccccc12)c1cn(CCCI)c2ccccc12    -1.74
O=C(c1cccc2ccccc12)c1cn(CCCCCI)c2ccccc12    -1.34

# input for lookup
log10 Ki of `CCCCCCCn1c(C)c(C(=O)c2ccccc2I)c2ccccc21` , assay on CB2 receptor (Mus musculus), is 0.18

###

assayedSystem: CB1 receptor (Rattus norvegicus)
Construct: membranes were prepared from rat forebrain membranes; from tissue; host or cells: rat forebrain
protocolText: CB1 receptor binding, [3H] CP-55,940 displacement, rat forebrain membranes
cond: TABLE 1; racemic samples; rat forebrain membranes; 0.8 nM [3H] CP-55,940; read-out: Kl CB1
quantityKind: pKi
API: returns pKi as number; meaning -log10 of concentration in mol/L.

Reference set, count: 5
Cc1c(C(=O)c2ccccc2I)c2ccc(N=C=S)cc2n1CC1CCCCN1C (racemic)    6.68
CN1CCCCC1Cn1cc(C(=O)c2ccc(I)c3ccccc23)c2ccc(N=[N+]=[N-])cc21 (racemic)    7.51
CN1CCCCC1Cn1cc(C(=O)c2cc(N=[N+]=[N-])ccc2I)c2ccc(N=[N+]=[N-])cc21 (racemic)    7.31
CN1CCCCC1Cn1cc(C(=O)c2ccc(N=C=S)c3ccccc23)c2ccc(N=C=S)cc21 (racemic)    6.63
CN1CCCCC1Cn1cc(C(=O)c2cc3ccc4cccc5ccc(c2)c3c45)c2ccccc21 (racemic)    7.22

The compound identified as CN1CCCCC1Cn1cc(C(=O)c2cccc3ccccc23)c2ccc(N=[N+]=[N-])cc21 (racemic) registered its pKi at 7.69

The compound identified as CN1CCCCC1Cn1cc(C(=O)c2cccc3ccccc23)c2ccc(N=C=S)cc21 (racemic) registered its pKi at 6.59

###

assayedSystem: CB2 receptor (Mus musculus, UniProt P47936)
Construct: membranes were prepared from frozen mouse spleen; from tissue; host or cells: mouse spleen
protocolText: CB2 receptor binding, [3H] CP-55,940 displacement, mouse spleen membranes
cond: TABLE 1; racemic samples; mouse spleen membranes; [3H] CP-55,940; read-out: Kl CB2 (converted)
As shown below, each of these compounds has a reported Ki value.
The response must be a number in nM with no trailing unit.

Reference set, count: 9
Cc1c(C(=O)c2ccccc2I)c2ccc(N=C=S)cc2n1CC1CCCCN1C (racemic)    25.2
CN1CCCCC1Cn1cc(C(=O)c2cccc3ccccc23)c2ccccc21 (stereo not shown) [AM1220]    73.4
CN1CCCCC1Cn1cc(C(=O)c2cc3ccc4cccc5ccc(c2)c3c45)c2ccccc21 (racemic)    126
CN1CCCCC1Cn1cc(C(=O)c2ccc(I)c3ccccc23)c2ccc(N=[N+]=[N-])cc21 (racemic)    2.9
CN1CCCCC1Cn1cc(C(=O)c2ccc([N+](=O)[O-])c3ccccc23)c2ccccc21 (stereo not shown)    13.5
CN1CCCCC1Cn1cc(C(=O)c2cccc3ccccc23)c2ccccc21 (stereo not shown) [AM1296]    3.88
CN1CCCCC1Cn1cc(C(=O)c2cc(N=C=S)ccc2I)c2ccc(N=C=S)cc21 (racemic)    29.9
CN1CCCCC1Cn1cc(C(=O)c2cc(N=[N+]=[N-])ccc2I)c2ccc(N=[N+]=[N-])cc21 (racemic)    41.8
Cc1c(C(=O)c2ccccc2)c2ccc(N=C=S)cc2n1CC1CCCCN1C (racemic)    44.8

# input for lookup
The compound identified as Cc1c(C(=O)c2ccccc2I)c2ccc(N=[N+]=[N-])cc2n1CC1CCCCN1C (racemic) registered its Ki at 21.9
